Please provide measured relative viability for the entries that follow.
# System: NCI-H1650
# TEST_NAME: relative viability (nuclei count vs DMSO), 5 days (fraction); higher = more cells survive
# TEST_CONDITIONS: first compound 0.006325 µM

Example molecules with recorded relative viability:
MOLECULE	VAL
CC(=O)O[C@@]12CO[C@@H]1C[C@H](O)[C@@]1(C)C(=O)[C@H](O)C3=C(C)[C@@H](OC(=O)[C@H](O)[C@@H](NC(=O)OC(C)(C)C)c4ccccc4)C[C@@](O)([C@@H](OC(=O)c4ccccc4)[C@H]21)C3(C)C [Docetaxel] + COc1cc2c(Oc3ccc(NC(=O)C4(C(=O)Nc5ccc(F)cc5)CC4)cc3F)ccnc2cc1OCCCN1CCOCC1 [Foretinib] (partner 0.25 µM)	0.213
CC(=O)O[C@@]12CO[C@@H]1C[C@H](O)[C@@]1(C)C(=O)[C@H](O)C3=C(C)[C@@H](OC(=O)[C@H](O)[C@@H](NC(=O)OC(C)(C)C)c4ccccc4)C[C@@](O)([C@@H](OC(=O)c4ccccc4)[C@H]21)C3(C)C [Docetaxel] + O=C(CCCCCCC(=O)Nc1ccccc1)NO [Vorinostat] (partner 1 µM)	0.196

Now look at this one.
IN: Indicate its recorded relative viability; the molecule in question is CC(=O)O[C@@]12CO[C@@H]1C[C@H](O)[C@@]1(C)C(=O)[C@H](O)C3=C(C)[C@@H](OC(=O)[C@H](O)[C@@H](NC(=O)OC(C)(C)C)c4ccccc4)C[C@@](O)([C@@H](OC(=O)c4ccccc4)[C@H]21)C3(C)C [Docetaxel] + Nc1nc2[nH]cc(CCc3ccc(C(=O)N[C@@H](CCC(=O)O)C(=O)O)cc3)c2c(=O)[nH]1 [Pemetrexed] (partner 0.2 µM)
OUT: 0.263
